Source of measurements: ChEMBL document CHEMBL5375990

# Test: Clearance in rat
# Type: ADME
# Conditions Used: in vivo
Reported values of clearance for individual entries
The number alone won't do; follow it with the unit.

Query block: Entry COc1ccc(C(=O)C2CCN(C(=O)c3cc(C)c(C(=O)NC4CCN(Cc5ccc(C#N)cc5)CC4)cn3)CC2)cc1 : reported clearance = ?
Result block: 38 mL/min/kg

Query block: Entry COc1ccc(C(=O)C2CCN(C(=O)c3ccc(C(=O)N[C@H]4CCN(Cc5ccc(C#N)cc5)C[C@@H]4C)cn3)CC2)cc1 : reported clearance = ?
Result block: 145 mL/min/kg

Query block: Entry COc1ccc(C(=O)C2CCN(C(=O)c3ccc(C(=O)NC4CCN(Cc5ccc(C#N)cc5)CC4)cn3)CC2)cc1 : reported clearance = ?
Result block: 150 mL/min/kg

Please look at the following compound next.
Query block: Entry COc1ccc(CN2CCC(NC(=O)c3cnc(C(=O)N4CCC(C(=O)c5ccc(OC)cc5)CC4)cc3C)CC2)cc1 : reported clearance = ?
Result block: 40 mL/min/kg

====

Reported values of half-life for individual entries
# Test: Microsomal stability in rat liver microsome assessed as half life
# Assay type: ADME
# Conditions Used: liver microsomes
Provide only the numeric value, understood in h.

Query block: Entry COc1ccc(CN2CCC(NC(=O)c3cnc(C(=O)N4CCC(C(=O)c5ccc(OC)cc5)CC4)cc3C)CC2)cc1 : reported half-life = ?
Result block: 0.917

Query block: Entry COc1ccc(C(=O)C2CCN(C(=O)c3ccc(C(=O)NC4CCN(Cc5ccc(C#N)cc5)CC4(F)F)cn3)CC2)cc1 (stereo not drawn) : reported half-life = ?
Result block: 2.48

Further cases:
Query block: Entry N#Cc1ccc(CN2CC[C@H](NC(=O)c3ccc(C(=O)N4CCC(C(=O)c5ccc(N6CCOCC6)cc5)CC4)nc3)[C@@H](F)C2)cc1 : reported half-life = ?
Result block: 1.22

====

Reported values of EC50 for individual entries
# Test: Activation of AMPK in human HepG2 cells incubated for 2 hrs
# Type: cell-based
# Conditions Used: HepG2, 2 h
Provide only the numeric value, understood in nM.

Query block: Entry COc1ccc(C(=O)C2CCN(C(=O)c3cc(F)c(C(=O)NC4CCN(Cc5ccc(C#N)cc5)CC4)cn3)CC2)cc1 : reported EC50 = ?
Result block: 1

Further cases:
Query block: Entry COc1ccc(C(=O)C2CCN(C(=O)c3ccc(C(=O)N[C@@H]4CCN(Cc5ccc(C#N)cc5)C[C@@H]4F)cn3)CC2)cc1 : reported EC50 = ?
Result block: 47

Query block: Entry COc1ccc(C(=O)C2CCN(C(=O)c3ccc(C(=O)NC4CCN(Cc5ccc(C#N)cc5)CC4)cn3)CC2)cc1 : reported EC50 = ?
Result block: 31

Query block: Entry COc1ccc(C(=O)C2CCN(C(=O)c3ccc(C(=O)N[C@H]4CCN(Cc5ccc(C#N)cc5)[C@H](C(F)(F)F)C4)cn3)CC2)cc1 : reported EC50 = ?
Result block: 464

Query block: Entry COc1ccc(C(=O)C2CCN(C(=O)c3cc(C)c(C(=O)NC4CCN(Cc5ccc(OC)c(F)c5)CC4)cn3)CC2)cc1 : reported EC50 = ?
Result block: 14

Query block: Entry N#Cc1ccc(CN2CC[C@H](NC(=O)c3ccc(C(=O)N4CCC(C(=O)c5ccc(-n6cccn6)cc5)CC4)nc3)[C@@H](F)C2)cc1 : reported EC50 = ?
Result block: 29

Query block: Entry COc1ccc(C(=O)C2CCN(C(=O)c3ccc(C(=O)NC4CCN(Cc5ccc(C#N)cc5)CC4(C)C)cn3)CC2)cc1 (configuration not stated) : reported EC50 = ?
Result block: 32

====

Reported values of pIC50 for individual entries
# Assayed System: UniProt P08684
# Sequence (P08684 whole entry): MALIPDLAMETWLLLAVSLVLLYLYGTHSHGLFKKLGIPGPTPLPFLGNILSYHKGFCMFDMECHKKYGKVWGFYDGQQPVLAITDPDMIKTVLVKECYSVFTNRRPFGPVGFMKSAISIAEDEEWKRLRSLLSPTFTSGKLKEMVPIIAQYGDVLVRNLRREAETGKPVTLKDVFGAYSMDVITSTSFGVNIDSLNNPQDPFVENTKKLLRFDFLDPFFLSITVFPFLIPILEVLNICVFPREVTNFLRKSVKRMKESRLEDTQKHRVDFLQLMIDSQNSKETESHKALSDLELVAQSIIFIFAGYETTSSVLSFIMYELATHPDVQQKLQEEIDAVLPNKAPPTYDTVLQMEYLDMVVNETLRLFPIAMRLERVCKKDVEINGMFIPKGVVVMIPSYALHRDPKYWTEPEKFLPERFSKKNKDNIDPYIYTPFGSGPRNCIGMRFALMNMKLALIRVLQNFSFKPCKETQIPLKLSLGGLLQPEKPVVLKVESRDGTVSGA
# Test: Inhibition of CYP3A4 (unknown origin) in presence of NADPH
# Assay type: ADME
pIC50: −log10 of the molar value.

Query block: Return pIC50 measured with UniProt P08684 given this molecule: COc1ccc(C(=O)C2CCN(C(=O)c3cc(C)c(C(=O)NC4CCN(Cc5ccc(C#N)cc5)CC4)cn3)CC2)cc1
Result block: < 5.00

Query block: Return pIC50 measured with UniProt P08684 given this molecule: COc1ccc(C(=O)C2CCN(C(=O)c3ccc(C(=O)N[C@@H]4CCN(Cc5ccc(C#N)cc5)C[C@@H]4F)cn3)CC2)cc1
Result block: < 5.00

Query block: Return pIC50 measured with UniProt P08684 given this molecule: COc1ccc(C(=O)C2CCN(C(=O)c3ccc(C(=O)NC4CCN(Cc5ccc(C#N)cc5)CC4)cn3)CC2)cc1
Result block: < 5.00

Query block: Return pIC50 measured with UniProt P08684 given this molecule: COc1ccc(C(=O)C2CCN(C(=O)c3ccc(C(=O)NC4CCN(Cc5ccc(C#N)cc5)CC4(F)F)cn3)CC2)cc1 (configuration not stated)
Result block: < 5.00

Query block: Return pIC50 measured with UniProt P08684 given this molecule: COc1ccc(C(=O)C2CCN(C(=O)c3ccc(C(=O)N[C@H]4CCN(Cc5ccc(C#N)cc5)C[C@@H]4F)cn3)CC2)cc1 (relative stereo)
Result block: < 5.00

Further cases:
Query block: Return pIC50 measured with UniProt P08684 given this molecule: COc1ccc(C(=O)C2CCN(C(=O)c3ccc(C(=O)N[C@@H]4CCN(Cc5ccc(C#N)cc5)C[C@@H]4C)cn3)CC2)cc1
Result block: 6.05

Query block: Return pIC50 measured with UniProt P08684 given this molecule: COc1ccc(C(=O)C2CCN(C(=O)c3cc(C(F)(F)F)c(C(=O)NC4CCN(Cc5ccc(C#N)cc5)CC4)cn3)CC2)cc1
Result block: 5.55

====

# Assayed System: 5'-AMP-activated protein kinase
# Test: Activation of AMPK in mouse C2C12 cells incubated for 2 hrs
# Format: cell-based
Please respond with true when measured EC50 is strictly beneath 0.2 µM, and with false in all other cases.

Example cases with answers are listed next.
Query block: Given the entry COc1ccc(C(=O)C2CCN(C(=O)c3ccc(C(=O)NC4CCN(Cc5ccc(C#N)cc5)CC4(C)C)cn3)CC2)cc1 (stereo unspecified) , would its reported EC50 be below 0.2 µM?
Result block: false

Query block: Given the entry COc1ccc(C(=O)C2CCN(C(=O)c3cc(F)c(C(=O)NC4CCN(Cc5ccc(C#N)cc5)CC4)cn3)CC2)cc1 , would its reported EC50 be below 0.2 µM?
Result block: true

Query block: Given the entry COc1ccc(C(=O)C2CCN(C(=O)c3ccc(C(=O)N[C@@H]4CCN(Cc5ccc(C#N)cc5)C[C@@H]4C)cn3)CC2)cc1 , would its reported EC50 be below 0.2 µM?
Result block: true

Further cases:
Query block: Given the entry COc1ccc(C(=O)C2CCN(C(=O)c3ccc(C(=O)N[C@H]4CCN(Cc5ccc(C#N)cc5)C[C@@H]4C)cn3)CC2)cc1 , would its reported EC50 be below 0.2 µM?
Result block: false

Query block: Given the entry COCCN(C(=O)c1ccc(C(=O)N2CCC(C(=O)c3ccc(OC)cc3)CC2)nc1)C1CCN(Cc2ccc(C#N)cc2)CC1 , would its reported EC50 be below 0.2 µM?
Result block: false

Query block: Given the entry COc1ccc(C(=O)C2CCN(C(=O)c3cc(C(F)(F)F)c(C(=O)NC4CCN(Cc5ccc(C#N)cc5)CC4)cn3)CC2)cc1 , would its reported EC50 be below 0.2 µM?
Result block: true

Query block: Given the entry COc1ccc(CN2CCC(NC(=O)c3cnc(C(=O)N4CCC(C(=O)c5ccc(OC)cc5)CC4)cc3C)CC2)cc1 , would its reported EC50 be below 0.2 µM?
Result block: true

Query block: Given the entry COc1ccc(C(=O)C2CCN(C(=O)c3ccc(C(=O)N[C@H]4CCN(Cc5ccc(C#N)cc5)C[C@@H]4F)cn3)CC2)cc1 (relative stereo) , would its reported EC50 be below 0.2 µM?
Result block: true

Query block: Given the entry COc1ccc(C(=O)C2CCN(C(=O)c3cc(C)c(C(=O)NC4CCN(Cc5ccc(C#N)cc5)CC4)cn3)CC2)cc1 , would its reported EC50 be below 0.2 µM?
Result block: true

Query block: Given the entry N#Cc1ccc(CN2CC[C@H](NC(=O)c3ccc(C(=O)N4CCC(C(=O)c5ccc(-n6cccn6)cc5)CC4)nc3)[C@@H](F)C2)cc1 , would its reported EC50 be below 0.2 µM?
Result block: true

Query block: Given the entry COc1ccc(C(=O)C2CCN(C(=O)c3ccc(C(=O)N[C@@H]4CCN(Cc5ccc(C#N)cc5)C[C@@H]4F)cn3)CC2)cc1 , would its reported EC50 be below 0.2 µM?
Result block: true

Query block: Given the entry COc1ccc(C(=O)C2CCN(C(=O)c3ccc(C(=O)NC4CCN(Cc5ccc(C#N)cc5)CC4(F)F)cn3)CC2)cc1 (stereo unspecified) , would its reported EC50 be below 0.2 µM?
Result block: true

Query block: Given the entry N#Cc1ccc(CN2CC[C@H](NC(=O)c3ccc(C(=O)N4CCC(C(=O)c5ccc(N6CCOCC6)cc5)CC4)nc3)[C@@H](F)C2)cc1 , would its reported EC50 be below 0.2 µM?
Result block: false

Query block: Given the entry COc1ccc(C(=O)C2CCN(C(=O)c3ccc(C(=O)N[C@@H]4CCN(Cc5ccc(C#N)cc5)C[C@@H]4C(F)(F)F)cn3)CC2)cc1 , would its reported EC50 be below 0.2 µM?
Result block: true

Query block: Given the entry COc1ccc(C(=O)C2CCN(C(=O)c3ccc(C(=O)NC4CCN(Cc5ccc(C#N)cc5)CC4)cn3)CC2)cc1 , would its reported EC50 be below 0.2 µM?
Result block: true

Query block: Given the entry COc1ccc(C(=O)C2CCN(C(=O)c3cc(C)c(C(=O)NC4CCN(Cc5ccc(OC)c(F)c5)CC4)cn3)CC2)cc1 , would its reported EC50 be below 0.2 µM?
Result block: true
